Assay: decomposition of busulfan standards in aqueous solution over time
Assay type: physicochemical
Details: aqueous solution; 37° C.; aqueous solutions 100, 600, 1200 ng/ml; FIG. 1
Observation type: half-life (h)
The reply should contain only the number, in h.

Give recorded half-life. CS(=O)(=O)OCCCCOS(C)(=O)=O [busulfan]
14
